target: mMC1R (Mus musculus, UniProt Q01727); experiment: cell-based
Sequence (Q01727 whole entry): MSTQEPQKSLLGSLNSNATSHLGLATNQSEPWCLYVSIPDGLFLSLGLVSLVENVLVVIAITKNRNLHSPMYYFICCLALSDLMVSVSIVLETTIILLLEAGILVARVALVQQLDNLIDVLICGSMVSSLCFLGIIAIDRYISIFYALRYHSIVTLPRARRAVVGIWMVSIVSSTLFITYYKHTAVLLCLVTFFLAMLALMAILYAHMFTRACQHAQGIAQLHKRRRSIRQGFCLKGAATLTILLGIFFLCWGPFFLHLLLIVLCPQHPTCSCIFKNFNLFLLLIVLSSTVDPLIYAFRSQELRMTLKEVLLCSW
Square brackets hold non-standard residues; d marks the D form. Peptide text beside a SMILES is read from it.
Simple rule here: EC50 less than 1000 nM is label 1, otherwise label 0.

Here are 4 compounds together with their reported answers.
compound	assigned_label
CCCC[C@@H]1NC(=O)[C@H](C)NC(=O)[C@H](CC(N)=O)NC(=O)[C@H](Cc2ccccc2)NC(=O)[C@H](Cc2ccccc2)NC(=O)[C@H](CCCNC(=N)N)NC(=O)[C@@H]2CCCN2C(=O)[C@H]2CCCN2C1=O [Compound 2, c[Pro-Arg-Phe-Phe-Asn-Ala-Nle-DPro]]	label 0
C[C@@H]1NC(=O)[C@H](CCCNC(=N)N)NC(=O)[C@H](Cc2ccccc2)NC(=O)[C@H](Cc2ccccc2)NC(=O)[C@H](CCCNC(=N)N)NC(=O)[C@@H]2CCCN2C(=O)[C@H]2CCCN2C(=O)[C@H](Cc2ccccc2)NC1=O [Compound 9, c[Pro-Arg-Phe-Phe-Arg-Ala-Phe-DPro]] (cyclo(RFFRAF[dP]P))	label 1
C[C@@H]1NC(=O)[C@H](CC(N)=O)NC(=O)[C@H](Cc2ccccc2)NC(=O)[C@H](Cc2ccccc2)NC(=O)[C@H](CCCNC(=N)N)NC(=O)[C@@H]2CCCN2C(=O)[C@H]2CCCN2C(=O)[C@H](Cc2ccccc2)NC1=O [Compound 1, c[Pro-Arg-Phe-Phe-Asn-Ala-Phe-DPro]]	label 0
C[C@@H]1NC(=O)[C@H](CN)NC(=O)[C@H](Cc2ccccc2)NC(=O)[C@H](Cc2ccccc2)NC(=O)[C@H](CCCNC(=N)N)NC(=O)[C@@H]2CCCN2C(=O)[C@H]2CCCN2C(=O)[C@H](Cc2ccccc2)NC1=O [Compound 5, c[Pro-Arg-Phe-Phe-Dap-Ala-Phe-DPro]]	label 0

We next turn to a different compound, shown below.
Dear reviewer, please state whether N=C(N)NCCC[C@@H]1NC(=O)[C@@H]2CCCN2C(=O)[C@H]2CCCN2C(=O)[C@H](Cc2ccccc2)NC(=O)[C@H](CO)NC(=O)[C@H](CC(N)=O)NC(=O)[C@H](Cc2ccccc2)NC(=O)[C@H](Cc2ccccc2)NC1=O [Compound 3, c[Pro-Arg-Phe-Phe-Asn-Ser-Phe-DPro]] (cyclo(RFFNSF[dP]P)) has EC50 strictly beneath 1000 nM.
label 0

----------
biological target: mMC5R (Mus musculus); assay: AlphaScreen cAMP assay, agonist/inverse agonist activity at mMC5R
Sequence (P41149 whole entry): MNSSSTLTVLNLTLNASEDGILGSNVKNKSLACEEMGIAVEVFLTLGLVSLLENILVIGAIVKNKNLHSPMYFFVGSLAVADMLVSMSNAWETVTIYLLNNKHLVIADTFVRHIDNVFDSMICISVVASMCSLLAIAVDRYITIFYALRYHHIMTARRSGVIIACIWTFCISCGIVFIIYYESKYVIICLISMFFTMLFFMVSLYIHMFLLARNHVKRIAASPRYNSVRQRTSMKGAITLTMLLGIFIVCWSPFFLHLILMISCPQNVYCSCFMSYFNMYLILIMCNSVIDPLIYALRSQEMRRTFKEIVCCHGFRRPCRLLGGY
Square brackets hold non-standard residues; d marks the D form. Peptide text beside a SMILES is read from it.
Answer each item with its documented EC50.
Answers are plain numbers, in nM.

compound	EC50, nM
CCCC[C@@H]1NC(=O)[C@H](C)NC(=O)[C@H](CC(N)=O)NC(=O)[C@H](Cc2ccccc2)NC(=O)[C@H](Cc2ccccc2)NC(=O)[C@H](CCCNC(=N)N)NC(=O)[C@@H]2CCCN2C(=O)[C@H]2CCCN2C1=O [Compound 2, c[Pro-Arg-Phe-Phe-Asn-Ala-Nle-DPro]]	10

As a next step, examine the compound that follows.
Answer with EC50 of N=C(N)NCCC[C@@H]1NC(=O)[C@@H]2CCCN2C(=O)[C@H]2CCCN2C(=O)[C@H](Cc2ccccc2)NC(=O)[C@H](CO)NC(=O)[C@H](CC(N)=O)NC(=O)[C@H](Cc2ccccc2)NC(=O)[C@H](Cc2ccccc2)NC1=O [Compound 3, c[Pro-Arg-Phe-Phe-Asn-Ser-Phe-DPro]] (cyclo(RFFNSF[dP]P)) measured for mMC5R (Mus musculus).
6

----------
target: mMC3R (Mus musculus, UniProt P33033); settings: calculated using Ki values from Schild analysis
Sequence (P33033 whole entry): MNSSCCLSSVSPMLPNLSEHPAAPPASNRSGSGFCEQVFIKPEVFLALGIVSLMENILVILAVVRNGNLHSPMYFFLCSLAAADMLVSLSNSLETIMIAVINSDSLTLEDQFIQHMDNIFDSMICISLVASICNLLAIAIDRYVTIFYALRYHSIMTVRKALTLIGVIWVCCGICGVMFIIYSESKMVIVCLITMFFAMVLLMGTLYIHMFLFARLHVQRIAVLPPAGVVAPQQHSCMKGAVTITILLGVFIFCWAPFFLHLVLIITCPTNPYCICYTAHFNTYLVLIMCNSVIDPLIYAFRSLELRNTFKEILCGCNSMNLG
Square brackets hold non-standard residues; d marks the D form. Peptide text beside a SMILES is read from it. hPhe = N[C@@H](CCc1ccccc1)C(=O)O; Nle = CCCC[C@H](N)C(=O)O
measure: fold increase in potency at the mMC3R compared to 1

compound	observed_value
N=C(N)NCCC[C@@H]1NC(=O)[C@H](CCc2ccccc2)NC(=O)[C@H](Cc2ccccc2)NC(=O)[C@H](CCCNC(=N)N)NC(=O)[C@@H]2CCCN2C(=O)[C@H]2CCCN2C(=O)[C@H](Cc2ccccc2)NC(=O)[C@H](CO)NC1=O [Compound 23, c[Pro-Arg-Phe-hPhe-Arg-Ser-Phe-DPro]] (cyclo(RF[hPhe]RSF[dP]P))	greater than 10 fold
CCCC[C@@H]1NC(=O)[C@H](C)NC(=O)[C@H](CCCNC(=N)N)NC(=O)[C@H](Cc2ccccc2)NC(=O)[C@H](Cc2ccccc2)NC(=O)[C@H](CCCNC(=N)N)NC(=O)[C@@H]2CCCN2C(=O)[C@H]2CCCN2C1=O [Compound 10, c[Pro-Arg-Phe-Phe-Arg-Ala-Nle-DPro]] (cyclo(RFFRA[Nle][dP]P))	greater than 10 fold
CCCC[C@@H]1NC(=O)[C@H](C)NC(=O)[C@H](CCCNC(=N)N)NC(=O)[C@H](CCc2ccccc2)NC(=O)[C@H](Cc2ccccc2)NC(=O)[C@H](CCCNC(=N)N)NC(=O)[C@@H]2CCCN2C(=O)[C@H]2CCCN2C1=O [Compound 22, c[Pro-Arg-Phe-hPhe-Arg-Ala-Nle-DPro]] (cyclo(RF[hPhe]RA[Nle][dP]P))	greater than 10 fold

----------
Exercise: for every item that follows, state its recorded fold increase in potency at the mMC4R compared to 1.
biological target: mMC4R (Mus musculus, UniProt P56450); conditions: calculated using Ki values from Schild analysis
Sequence (P56450 whole entry): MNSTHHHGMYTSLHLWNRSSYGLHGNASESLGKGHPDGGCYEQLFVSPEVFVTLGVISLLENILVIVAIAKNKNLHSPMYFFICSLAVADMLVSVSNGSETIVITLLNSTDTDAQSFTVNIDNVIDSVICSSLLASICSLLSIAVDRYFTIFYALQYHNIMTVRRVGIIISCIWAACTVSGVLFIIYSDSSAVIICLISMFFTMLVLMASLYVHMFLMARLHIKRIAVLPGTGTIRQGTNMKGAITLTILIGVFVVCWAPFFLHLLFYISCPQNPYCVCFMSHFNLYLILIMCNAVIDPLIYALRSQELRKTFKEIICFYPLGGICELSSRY
Square brackets hold non-standard residues; d marks the D form. Peptide text beside a SMILES is read from it. hPhe = N[C@@H](CCc1ccccc1)C(=O)O; Nle = CCCC[C@H](N)C(=O)O; Dap = NC[C@H](N)C(=O)O

Look over these answered cases.
compound	observed_value
CCCC[C@@H]1NC(=O)[C@H](CO)NC(=O)[C@H](CC(N)=O)NC(=O)[C@H](Cc2ccccc2)NC(=O)[C@H](Cc2ccccc2)NC(=O)[C@H](CCCNC(=N)N)NC(=O)[C@@H]2CCCN2C(=O)[C@H]2CCCN2C1=O [Compound 4, c[Pro-Arg-Phe-Phe-Asn-Ser-Nle-DPro]] (cyclo(RFFNS[Nle][dP]P))	≤ 10 fold
CCCC[C@@H]1NC(=O)[C@H](C)NC(=O)[C@H](CC(N)=O)NC(=O)[C@H](Cc2ccccc2)NC(=O)[C@H](Cc2ccccc2)NC(=O)[C@H](CCCNC(=N)N)NC(=O)[C@@H]2CCCN2C(=O)[C@H]2CCCN2C1=O [Compound 2, c[Pro-Arg-Phe-Phe-Asn-Ala-Nle-DPro]]	≤ 10 fold
CCCC[C@@H]1NC(=O)[C@H](CO)NC(=O)[C@H](CCCNC(=N)N)NC(=O)[C@H](Cc2ccccc2)NC(=O)[C@H](Cc2ccccc2)NC(=O)[C@H](CCCNC(=N)N)NC(=O)[C@@H]2CCCN2C(=O)[C@H]2CCCN2C1=O [Compound 12, c[Pro-Arg-Phe-Phe-Arg-Ser-Nle-DPro]] (cyclo(RFFRS[Nle][dP]P))	≥ 10 fold
CCCC[C@@H]1NC(=O)[C@H](CO)NC(=O)[C@H](CN)NC(=O)[C@H](Cc2ccccc2)NC(=O)[C@H](Cc2ccccc2)NC(=O)[C@H](CCCNC(=N)N)NC(=O)[C@@H]2CCCN2C(=O)[C@H]2CCCN2C1=O [Compound 8, c[Pro-Arg-Phe-Phe-Dap-Ser-Nle-DPro]] (cyclo(RFF[Dap]S[Nle][dP]P))	≥ 10 fold

Now look at this entry.
Dear colleague, please send me the reported fold increase in potency at the mMC4R compared to 1 for CCCC[C@@H]1NC(=O)[C@H](CO)NC(=O)[C@H](CN)NC(=O)[C@H](CCc2ccccc2)NC(=O)[C@H](Cc2ccccc2)NC(=O)[C@H](CCCNC(=N)N)NC(=O)[C@@H]2CCCN2C(=O)[C@H]2CCCN2C1=O [Compound 20, c[Pro-Arg-Phe-hPhe-Dap-Ser-Nle-DPro]] (cyclo(RF[hPhe][Dap]S[Nle][dP]P)) when you can.
25 fold

----------
Square brackets hold non-standard residues; d marks the D form. Peptide text beside a SMILES is read from it.
Record type: log10(Kb) measurement. Applies to: mMC3R (Mus musculus, UniProt P33033)
Short version: log10 scale, Kb, nM.

Below, each entry is followed by its recorded log10(Kb) result.
compound	system	measure	observed_value
N=C(N)NCCC[C@@H]1NC(=O)[C@@H]2CCCN2C(=O)[C@H]2CCCN2C(=O)[C@H](Cc2ccccc2)NC(=O)[C@H](CO)NC(=O)[C@H](CC(N)=O)NC(=O)[C@H](Cc2ccccc2)NC(=O)[C@H](Cc2ccccc2)NC1=O [Compound 3, c[Pro-Arg-Phe-Phe-Asn-Ser-Phe-DPro]] (cyclo(RFFNSF[dP]P))	mMC3R (Mus musculus, UniProt P33033)	log10(Kb)	2.90
C[C@@H]1NC(=O)[C@H](CN)NC(=O)[C@H](Cc2ccccc2)NC(=O)[C@H](Cc2ccccc2)NC(=O)[C@H](CCCNC(=N)N)NC(=O)[C@@H]2CCCN2C(=O)[C@H]2CCCN2C(=O)[C@H](Cc2ccccc2)NC1=O [Compound 5, c[Pro-Arg-Phe-Phe-Dap-Ala-Phe-DPro]]	mMC3R (Mus musculus, UniProt P33033)	log10(Kb)	1.80
C[C@@H]1NC(=O)[C@H](CC(N)=O)NC(=O)[C@H](CCc2ccccc2)NC(=O)[C@H](Cc2ccccc2)NC(=O)[C@H](CCCNC(=N)N)NC(=O)[C@@H]2CCCN2C(=O)[C@H]2CCCN2C(=O)[C@H](Cc2ccccc2)NC1=O [Compound 13, c[Pro-Arg-Phe-hPhe-Asn-Ala-Phe-DPro]]	mMC3R (Mus musculus, UniProt P33033)	log10(Kb)	3.40
C[C@@H]1NC(=O)[C@H](CCCNC(=N)N)NC(=O)[C@H](Cc2ccccc2)NC(=O)[C@H](Cc2ccccc2)NC(=O)[C@H](CCCNC(=N)N)NC(=O)[C@@H]2CCCN2C(=O)[C@H]2CCCN2C(=O)[C@H](Cc2ccccc2)NC1=O [Compound 9, c[Pro-Arg-Phe-Phe-Arg-Ala-Phe-DPro]] (cyclo(RFFRAF[dP]P))	mMC3R (Mus musculus, UniProt P33033)	log10(Kb)	1.60

Please give measured log10(Kb) of the following entry: CCCC[C@@H]1NC(=O)[C@H](C)NC(=O)[C@H](CC(N)=O)NC(=O)[C@H](Cc2ccccc2)NC(=O)[C@H](Cc2ccccc2)NC(=O)[C@H](CCCNC(=N)N)NC(=O)[C@@H]2CCCN2C(=O)[C@H]2CCCN2C1=O [Compound 2, c[Pro-Arg-Phe-Phe-Asn-Ala-Nle-DPro]]
2.40
